target: Estrogen receptor (Homo sapiens); test: qHTS assay to identify small molecule antagonists of the estrogen receptor alpha (ER-alpha) signaling pathway (AID 743069); conditions: HEK293 ER-alpha-UAS-bla, beta-lactamase ratio, antagonist mode; series mostly up to 69.4 µM
Activity calls are given as the source filed them. Calls follow the shape of the dose curve; as a rule, active = well fitted curve in the direction sought with a large enough effect in the signal ratio in the repeat runs (not every such curve was filed as active); inconclusive = weak or mixed curves, or effect the other way; inactive = no such curve, though single readings can be large or run the other way; the % refers to the signal ratio.
Give your call using only these classes: active, inactive

Consider the worked cases shown below.
{"columns": ["MOLECULE", "CATEGORY"],
 "data": [
  ["CCC(=O)C(CC(C)N(C)C)(c1ccccc1)c1ccccc1 (stereo not drawn)", "inactive"],
  ["Cc1cc(-c2ccc(N)c(C)c2)ccc1N", "inactive"],
  ["Cc1cc(Cl)ccc1OCC(=O)O", "inactive"],
  ["O=P1(N(CCCl)CCCl)NCCCO1 (stereo not drawn)", "inactive"],
  ["O=C(O)C(Cl)Cl", "inactive"]
]}

Recorded test call requested for CCNc1nc(Cl)nc(NCC)n1 inactive

Try this molecule next: Nc1ccc(Cl)cc1 active

Try this molecule next: Oc1ccccc1-c1ccccc1 inactive

All figures here come from PubChem BioAssay (Tox21).
